method.description: Apparent permeability by PAMPA method
Type: physicochemical
quantity: Papp (×10⁻⁶ cm/s)
The answer is to be given in ×10⁻⁶ cm/s; state only the numeric part.

1) NC(=O)c1nc(-c2cccs2)nc(O)c1O : 0.7

For reference, reported Papp for CCC(C)NC(=O)c1nc(-c2cccs2)[nH]c(=O)c1O (stereo not drawn) stands at 9.7

For reference, reported Papp for `CNC(=O)c1nc(-c2cccs2)[nH]c(=O)c1O` stands at 3.1

====

target.or.system: DNA excision repair protein ERCC-1/DNA repair endonuclease XPF (Homo sapiens, UniProt P07992+Q92889)
Sequence (P07992 whole entry): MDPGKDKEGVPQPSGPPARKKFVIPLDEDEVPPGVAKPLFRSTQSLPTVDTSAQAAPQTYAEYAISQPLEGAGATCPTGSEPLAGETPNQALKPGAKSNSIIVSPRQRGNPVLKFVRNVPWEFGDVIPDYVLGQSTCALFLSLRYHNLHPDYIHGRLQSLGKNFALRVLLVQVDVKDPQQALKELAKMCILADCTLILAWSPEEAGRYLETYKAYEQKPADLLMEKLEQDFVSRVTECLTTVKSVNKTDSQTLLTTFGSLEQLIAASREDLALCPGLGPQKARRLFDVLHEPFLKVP
Sequence (Q92889 whole entry): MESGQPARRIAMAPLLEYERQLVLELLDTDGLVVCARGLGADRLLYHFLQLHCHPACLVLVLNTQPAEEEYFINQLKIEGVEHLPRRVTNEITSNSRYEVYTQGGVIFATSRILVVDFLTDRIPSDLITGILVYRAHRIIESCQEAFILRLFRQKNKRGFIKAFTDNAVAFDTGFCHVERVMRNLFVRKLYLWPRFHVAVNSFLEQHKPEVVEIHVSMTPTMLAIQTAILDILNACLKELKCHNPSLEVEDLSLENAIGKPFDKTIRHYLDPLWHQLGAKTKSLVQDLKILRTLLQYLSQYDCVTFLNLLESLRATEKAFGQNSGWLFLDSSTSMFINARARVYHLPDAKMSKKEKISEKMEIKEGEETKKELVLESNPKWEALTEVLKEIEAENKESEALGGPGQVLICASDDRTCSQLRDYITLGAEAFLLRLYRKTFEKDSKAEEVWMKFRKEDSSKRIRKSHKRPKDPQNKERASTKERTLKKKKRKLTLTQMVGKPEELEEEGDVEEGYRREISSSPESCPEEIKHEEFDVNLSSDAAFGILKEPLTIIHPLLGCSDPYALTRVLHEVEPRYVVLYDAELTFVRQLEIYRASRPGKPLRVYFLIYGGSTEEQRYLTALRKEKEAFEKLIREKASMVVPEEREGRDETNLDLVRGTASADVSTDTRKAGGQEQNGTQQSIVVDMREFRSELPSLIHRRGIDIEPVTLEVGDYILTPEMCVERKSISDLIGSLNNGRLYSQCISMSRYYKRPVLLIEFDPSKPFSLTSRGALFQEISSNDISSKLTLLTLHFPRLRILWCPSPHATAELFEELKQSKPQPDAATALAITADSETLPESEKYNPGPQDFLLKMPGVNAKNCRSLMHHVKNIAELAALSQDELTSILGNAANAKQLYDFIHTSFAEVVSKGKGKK
method.description: Inhibition of ERCC1-XPF (unknown origin) by high-throughput fluorescence based in-vitro endonuclease assay
quantity: pIC50
// pIC50: -log10(molar conc.)

1. Cc1ccc(-c2coc3c(=O)n(O)c(=O)[nH]c23)cc1 : 5.82
2. O=C(O)c1nc(-c2cccs2)nc(O)c1O : 5.54
3. CC(=O)Nc1cccc2c(=O)n(O)c(=O)[nH]c12 : 5.21
4. O=C(Nc1ccc(F)cc1)c1nc(-c2cccs2)[nH]c(=O)c1O : 6.10
5. CC(=O)Nc1ccc2c(=O)n(O)c(=O)[nH]c2c1 : 5.19

For reference, reported pIC50 for CCC(C)NC(=O)c1nc(-c2cccs2)[nH]c(=O)c1O (configuration not stated) stands at 6.22

For reference, reported pIC50 for `CC(C)CCNC(=O)c1nc(C2CCN(C)CC2)[nH]c(=O)c1O` stands at 5.16

For reference, reported pIC50 for `O=C(c1nc(-c2cccs2)[nH]c(=O)c1O)N1CCCC1` stands at 5.34

For reference, reported pIC50 for `O=c1c2ccsc2n(Cc2ccccc2)c(=O)n1O` stands at 4.09

For reference, reported pIC50 for `NC(=O)c1nc(-c2cccs2)nc(O)c1O` stands at 6.00

For reference, reported pIC50 for `O=c1[nH]c2cc(Nc3ccccc3)ccc2c(=O)n1O` stands at 5.41

For reference, reported pIC50 for `O=c1[nH]c2c(-c3ccccc3)csc2c(=O)n1O` stands at 5.74

Every entry's value here was drawn from ChEMBL document CHEMBL3616448.
